system: E. coli MG1655; test: High-throughput screening of FDA-approved drug library for antibiotic adjuvants (growth inhibition, OD600); type: cell-based, Escherichia coli; settings: library drug alone, LB medium, 96-well, 8 h static culture at 37°C, relative to PMBN (positive) and DMSO (negative) controls, %, table head prints no unit
Counter-ions that a name gives are not always drawn.
Catalogue of Growth inhibition, Compound values
Lab book: enter the figure in %, no units written.

Example compounds with recorded Growth inhibition, Compound:
compound: Cc1cn([C@H]2C[C@H](F)[C@@H](CO)O2)c(=O)[nH]c1=O
measured metric: Growth inhibition, Compound
numeric result: 70
--
compound: CCn1cc(C(=O)O)c(=O)c2cc(F)c(N3CCNCC3)nc21
measured metric: Growth inhibition, Compound
numeric result: 109

// field: Growth inhibition, Compound; key: [H]/N=C(\N/C(=N/[H])NCCCCCCNC(=N)NC(=N)Nc1ccc(Cl)cc1)Nc1ccc(Cl)cc1 [Chlorhexidine Acetate] ; value = 103

// field: Growth inhibition, Compound; key: O=C(N/N=C/c1ccc([N+](=O)[O-])o1)c1ccc(O)cc1 [Nifuroxazide] ; value = 102

// field: Growth inhibition, Compound; key: N[C@@H]1CN(c2c(F)cc3c(=O)c(C(=O)O)cn([C@@H]4C[C@@H]4F)c3c2Cl)CC12CC2.N[C@@H]1CN(c2c(F)cc3c(=O)c(C(=O)O)cn([C@@H]4C[C@@H]4F)c3c2Cl)CC12CC2.O.O.O [Sitafloxacin Hydrate] ; value = 101

// field: Growth inhibition, Compound; key: CNc1ncc(-c2ccc3c(=O)c(C(=O)O)cn(C4CC4)c3c2C)cc1C ; value = 106

// field: Growth inhibition, Compound; key: CO/N=C(\C(=O)N[C@@H]1C(=O)N2C(C(=O)O)=C(CSc3nnnn3C)CS[C@H]12)c1csc(N)n1.CO/N=C(\C(=O)N[C@@H]1C(=O)N2C(C(=O)O)=C(CSc3nnnn3C)CS[C@H]12)c1csc(N)n1.Cl [Cefmenoxime hydrochloride] ; value = 96

// field: Growth inhibition, Compound; key: CC1(C)S[C@@H]2[C@H](NC(=O)[C@H](N)c3ccccc3)C(=O)N2[C@H]1C(=O)O [Ampicillin sodium] ; value = 91

// field: Growth inhibition, Compound; key: C[C@H]1COc2c(N3CCN(C)CC3)c(F)cc3c(=O)c(C(=O)O)cn1c23 [Levofloxacin Hemihydrate] ; value = 114

// field: Growth inhibition, Compound; key: CC[C@H]1OC(=O)[C@H](C)[C@@H](O[C@H]2C[C@@](C)(OC)[C@@H](O)[C@H](C)O2)[C@H](C)[C@@H](O[C@@H]2O[C@H](C)C[C@H](N(C)C)[C@H]2O)[C@](C)(O)C[C@@H](C)CN(C)[C@H](C)[C@@H](O)[C@]1(C)O [Azithromycin] ; value = 109

// field: Growth inhibition, Compound; key: C=CC1=C(C(=O)O)N2C(=O)[C@@H](NC(=O)/C(=N\O)c3csc(N)n3)[C@H]2SC1 ; value = 100

// field: Growth inhibition, Compound; key: CCn1cc(C(=O)O)c(=O)c2cc(F)c(N3CCNC(C)C3)c(F)c21 (stereo not drawn) [Lomefloxacin hydrochloride] ; value = 107

###

Catalogue of Growth inhibition, Compound values
tested on: E. coli MG1655; assay: High-throughput screening of FDA-approved drug library for antibiotic adjuvants (growth inhibition, OD600); format: cell-based, Escherichia coli; conditions: library drug alone, LB medium, 96-well, 8 h static culture at 37°C, relative to PMBN (positive) and DMSO (negative) controls, %, table head prints no unit
Where a name gives a salt, the structure may show the parent alone.
Lab book: enter the figure in %, no units written.

molecule: CSCC1CN(/N=C/c2ccc([N+](=O)[O-])o2)C(=O)O1 (stereo not shown) [Nifuratel]
Growth inhibition, Compound (%): 108
--
molecule: [H]/N=C(\N/C(=N/[H])NCCCCCCNC(=N)NC(=N)Nc1ccc(Cl)cc1)Nc1ccc(Cl)cc1 [Chlorhexidine hydrochloride]
Growth inhibition, Compound (%): 107
--
molecule: C[C@@H]1O[C@@H]1P(=O)(O)O [Fosfomycin Disodium]
Growth inhibition, Compound (%): 102

// field: Growth inhibition, Compound; key: Cl.O=C1OC(CN2CCOCC2)CN1/N=C/c1ccc([N+](=O)[O-])o1 (stereo not shown) [Furaltadone hydrochloride] ; value = 115

###

system: E. coli MG1655; assay: High-throughput screening of FDA-approved drug library for antibiotic adjuvants (growth inhibition, OD600); type: cell-based, Escherichia coli; conditions: library drug alone, LB medium, 96-well, 8 h static culture at 37°C, relative to PMBN (positive) and DMSO (negative) controls, %, table head prints no unit
Where a name gives a salt, the structure may show the parent alone.
measured metric: Growth inhibition, Compound (%)
Lab book: enter the figure in %, no units written.

Example compounds with recorded Growth inhibition, Compound:
compound: CC(C)(C)C(=O)OCOC(=O)[C@@H]1N2C(=O)[C@@H](/N=C/N3CCCCCC3)[C@H]2SC1(C)C [Pivmecillinam hydrochloride]
Growth inhibition, Compound, %: 72

compound: COc1c(N2CCNC(C)C2)c(F)cc2c(=O)c(C(=O)O)cn(C3CC3)c12.Cl (stereo not shown) [Gatifloxacin hydrochloride]
Growth inhibition, Compound, %: 104

compound: [H]/N=C(\N/C(=N/[H])NCCCCCCNC(=N)NC(=N)Nc1ccc(Cl)cc1)Nc1ccc(Cl)cc1 [Chlorhexidine]
Growth inhibition, Compound, %: 101

Now consider the entry below.
Field Growth inhibition, Compound (E. coli MG1655), entry CN(C)[C@@H]1C(O)=C(C(N)=O)C(=O)[C@@]2(O)C(O)=C3C(=O)c4c(O)ccc(Cl)c4[C@@H](O)[C@H]3C[C@@H]12 [Demeclocycline hydrochloride] : 99

###

tested on: E. coli MG1655; experiment: High-throughput screening of FDA-approved drug library for antibiotic adjuvants (growth inhibition, OD600); type: cell-based, Escherichia coli; conditions: library drug alone, LB medium, 96-well, 8 h static culture at 37°C, relative to PMBN (positive) and DMSO (negative) controls, %, table head prints no unit
Counter-ions that a name gives are not always drawn.
Catalogue of Growth inhibition, Compound values
Lab book: enter the figure in %, no units written.

Example molecules with recorded Growth inhibition, Compound:
molecule: C=C1c2cccc(O)c2C(=O)C2=C(O)[C@]3(O)C(=O)C(C(N)=O)=C(O)[C@@H](N(C)C)[C@@H]3[C@@H](O)[C@H]12 [Methacycline hydrochloride]
subject of test: E. coli MG1655
Growth inhibition, Compound, %: 112
//
molecule: CC1NCc2cc(-c3ccc4c(=O)c(C(=O)O)cn(C5CC5)c4c3OC(F)F)ccc21.CS(=O)(=O)O.O (stereo not drawn) [Garenoxacin mesylate hydrate]
subject of test: E. coli MG1655
Growth inhibition, Compound, %: 106
//
molecule: Nc1nc(/C(=N/O)C(=O)N[C@@H]2C(=O)N3C(C(=O)O)=C(/C=C4\CCN([C@@H]5CCNC5)C4=O)CS[C@H]23)ns1
subject of test: E. coli MG1655
Growth inhibition, Compound, %: 107
//
molecule: Nc1ncn([C@@H]2O[C@H](CO)[C@@H](O)[C@H]2O)c(=O)n1
subject of test: E. coli MG1655
Growth inhibition, Compound, %: 43
//
molecule: CN(C)[C@@H]1C(O)=C(C(N)=O)C(=O)[C@@]2(O)C(O)=C3C(=O)c4c(O)ccc(Cl)c4[C@@](C)(O)[C@H]3C[C@@H]12 [Chlortetracycline hydrochloride]
subject of test: E. coli MG1655
Growth inhibition, Compound, %: 111

// field: Growth inhibition, Compound; key: Cc1c(-c2ccccc2)oc2c(C(=O)OCCN3CCCCC3)cccc2c1=O [Flavoxate hydrochloride] ; value = 95

The origin of these recorded values is paper PMC11358092.
